Listed below: IC50 values for each entry.
# MEASURED_TARGET: hMC-4R (Homo sapiens)
# Sequence (P32245 whole entry): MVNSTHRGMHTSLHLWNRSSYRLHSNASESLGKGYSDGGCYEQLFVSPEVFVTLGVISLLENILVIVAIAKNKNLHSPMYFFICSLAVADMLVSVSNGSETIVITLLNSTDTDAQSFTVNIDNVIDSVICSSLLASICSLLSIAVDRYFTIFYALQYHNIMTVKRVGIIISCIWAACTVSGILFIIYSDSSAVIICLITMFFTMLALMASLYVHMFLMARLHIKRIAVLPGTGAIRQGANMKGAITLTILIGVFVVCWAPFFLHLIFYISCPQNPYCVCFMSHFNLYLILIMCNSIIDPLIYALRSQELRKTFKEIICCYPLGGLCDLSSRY
# PROTOCOL_TEXT: Membrane binding assay, competition with fluorescence labeled NDP-alpha-MSH (fluorescence polarization)
# Parameters: expressed in transfected cells; host or cells: HEK293 cells (membrane preparations)
# SETTINGS: HEK293 cell membrane preparations

Worked set:
Cc1noc(-c2nc3ccc(C(=O)N(CCC(C)C)CCC(C)C)cn3c2CCCN(C)C)n1 | 100 to 1000 nM
CC(C)CCN(CCC(C)C)C(=O)c1ccc2nc(N(C)c3ccccn3)c(CCCN3CCCC3)n2c1 | 100 to 1000 nM
CC(C)CCN(CCC(C)C)C(=O)c1ccc2nc(C(=O)N3CCN(C)CC3)c(CCCN3CCCC3)n2c1 | 100 to 1000 nM

Now look at this one.
Read off the recorded IC50 for `CCOC(=O)CCc1nc2ccc(C(=O)N(CCC(C)C)CCC(C)C)cn2c1CCCN(C)C`
100 to 1000 nM
